Items are presented alongside their recorded TGI.
# Tested on: SK-MEL-5 melanoma
# procedure-text: NCI tumour cell line growth inhibition, 48 h

O=C1/C(=C/c2ccc(Cl)cc2)CCC/C1=C\c1ccc(O)c(CN2CCCCC2)c1; 35.3 µM
CC(C)(C)C1CCC2c3c([nH]c4ccccc34)C3C(=O)N(c4ccc(C(=O)O)cc4)C(=O)C3C2C1 (stereo not drawn); 25.7 µM
CC[C@H](CC[C@@H](C)[C@H]1CC[C@H]2[C@@H]3CC=C4C[C@@H](O)CC[C@]4(C)[C@H]3CC[C@]12C)C(C)C; > 100 µM

Look up TGI for this molecule: COc1ccc(C(=O)C2C(C#N)C(C#N)C3C=Cc4ccccc4N32)cc1 (stereo not drawn)
19.8 µM

Look up TGI for this molecule: `O=C1CCC(=O)N1CNc1cccc(NCN2C(=O)CCC2=O)c1`
> 100 µM

Look up TGI for this molecule: `CCN(CC)CCCNc1ccc2ncn3c4ccc(O)cc4c(=O)c1c23`
18.3 µM

Look up TGI for this molecule: `COc1cc2c3c(n(CCCNCCCNCCCn4c5c(c6cc(OC)c(OC)cc6c4=O)C(=O)c4ccccc4-5)c(=O)c2cc1OC)-c1ccccc1C3=O`
> 100 µM

Look up TGI for this molecule: `O=C(O)c1cc2cc(OCc3ccccc3)ccc2[nH]1`
> 100 µM

Look up TGI for this molecule: `Cc1ccc(NC(=O)CSc2nnc(Cc3ccccc3)o2)c(C)c1`
> 100 µM

Look up TGI for this molecule: Nc1ncc2ccc3c(ccn3C3CC(O)C(CO)O3)c2n1 (stereo not drawn)
> 100 µM

Look up TGI for this molecule: `CCCCCCC/C(=N\N=C(N)N)c1ccc(O)cc1`
2.82 µM

Look up TGI for this molecule: `O=C(/C=C/c1ccc2c(c1)OCO2)NCc1ccco1`
> 100 µM

Look up TGI for this molecule: O=C1C(C(Nc2ccccc2)c2ccccc2)=C([O-])c2ccccc21.O=C1C(C(Nc2ccccc2)c2ccccc2)=C([O-])c2ccccc21.[Co+2] (stereo not drawn)
> 100 µM

* * *

# Test system: MCF7 breast
# procedure-text: NCI tumour cell line growth inhibition, 48 h
outcome-measure: TGI

Consider the worked cases shown below.
CCCOc1cc2c(cc1O)CC[C@@H]1[C@@H]2CC[C@]2(C)[C@@H](O)CC[C@@H]12; 37.2 µM
NCc1ccc(O)c(O)c1; > 100 µM
Cc1ccncc1N1CCN(c2ccnc(Cl)c2)C1=O; > 100 µM
c1ccc(C[n+]2ccc3c(c2)CCCC3)cc1; > 100 µM
CCOC(=O)c1c(O)cc(=O)[nH]c1N1CCOCC1; > 100 µM
Cc1ccc(N=Nc2c(O)c(S(=O)(=O)O)cc3cc(S(=O)(=O)O)ccc23)c(C)c1; > 100 µM
O=C(O)[C@@H]1CCCN1Cc1cc2cc3c(cc2c2cc(OCc4ccccc4)ccc12)OCO3; 43.9 µM
N#C/C(=C\c1ccc(Cl)cc1)c1nc(-c2cc3ccccc3oc2=O)cs1; > 100 µM

What value of TGI on MCF7 breast does CCN1CC2(COC)C(O)CC(OC)C34C5CC6(O)C(OC)C=C(C5C6OC(=O)c5ccc(OC)c(OC)c5)C(C(OC)C23)C14 (centres undefined) have?
> 7.5 µM

What value of TGI on MCF7 breast does `O=C1/C(=C/c2ccc(Cl)cc2)CCC/C1=C\c1ccc(O)c(CN2CCCCC2)c1` have?
> 100 µM

What value of TGI on MCF7 breast does `CC1=C2[C@H]3OC(=O)[C@@H](C)[C@@H]3CC[C@@]2(C)C=CC1=O` have?
> 100 µM

What value of TGI on MCF7 breast does `COc1ccc(C(=O)NCCNc2nccc(-c3c(-c4ccc(F)cc4)nc4sccn34)n2)cc1` have?
36.2 µM

What value of TGI on MCF7 breast does `C=C[C@H]1CN2CCc3c([nH]c4cc(O)ccc34)[C@@H]2C[C@@H]1C[C@H]1c2[nH]c3ccccc3c2CCN1C` have?
6.01 µM

What value of TGI on MCF7 breast does `COC(=O)c1c(C(=O)OC)c2ccc(-c3ccc(Cl)cc3)nn2c1C(=O)c1ccc([N+](=O)[O-])cc1` have?
> 100 µM

What value of TGI on MCF7 breast does CCOC1c2cc(OC)c(OC)cc2-c2ccc3ccccc3c2N1C (centres undefined) have?
51 µM

What value of TGI on MCF7 breast does `OC(c1ccc(F)cc1)(c1ccc(F)cc1)C1CC1` have?
> 100 µM

What value of TGI on MCF7 breast does `c1cc2ccc3cc2cc1CNCCN1CCNCc2ccc4ccc(cc4c2)CNCCN(CCNC3)CCNCc2ccc3ccc(cc3c2)CNCC1` have?
5.15 µM

What value of TGI on MCF7 breast does O=C(CC1(O)C(=O)N(Cc2ccccc2)c2ccc(Br)cc21)c1ccc(C(=O)NCC2CCC3(CC2)OOC2(CCCCC2)OO3)cc1 (centres undefined) have?
> 87.9 µM

What value of TGI on MCF7 breast does `CCC(=O)Oc1cc(/C=C/C(=O)O[C@H]2C[C@H]3CN4CCc5c([nH]c6cc(OC)ccc56)[C@@H]4C[C@@H]3[C@@H](C(=O)OC)[C@@H]2OC)ccc1OC` have?
24.3 µM

What value of TGI on MCF7 breast does `Cc1ccnc2[nH]c(-c3cccc4ccccc34)cc(=O)c12` have?
28 µM

What value of TGI on MCF7 breast does `C[n+]1cn(-c2ccc([N+](=O)[O-])cn2)c2ccccc21` have?
> 100 µM

What value of TGI on MCF7 breast does `COc1cc(C(=O)/C=C/c2cc(-c3cc(OC)c(OC)c(OC)c3)n[nH]2)cc(OC)c1OC` have?
2.07 µM

What value of TGI on MCF7 breast does `Cc1ccc(C(=O)CCl)o1` have?
> 10 µM

What value of TGI on MCF7 breast does CC12CC[C@@H]3c4cc5c(cc4CC[C@H]3[C@@H]1CCC2O)oc1cc(F)ccc15 (some centres undefined) have?
82.7 µM

What value of TGI on MCF7 breast does COc1cc(/C=C2\CCC(C)C3=C(c4cc(OC)c(OC)c(OC)c4)C(C#N)=C(N)OC32)cc(OC)c1OC (centres undefined) have?
7.4 µM
